A collection of compounds and their measured % bound
# target.under.test: Nucleoprotein (Rift valley fever virus (strain ZH-548 M12)) (UniProt P21700)
# Sequence (P21700 whole entry, looked up): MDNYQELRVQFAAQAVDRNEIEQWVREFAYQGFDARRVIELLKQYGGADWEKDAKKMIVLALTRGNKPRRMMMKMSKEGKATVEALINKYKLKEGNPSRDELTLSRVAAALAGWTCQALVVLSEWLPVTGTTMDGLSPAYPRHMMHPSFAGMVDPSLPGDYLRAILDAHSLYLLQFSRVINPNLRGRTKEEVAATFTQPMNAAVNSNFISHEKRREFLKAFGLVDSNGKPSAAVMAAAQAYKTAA
# assay.info: inhibitors of RVFV nucleoprotein–RNA binding, primary screen, biochemical, fluorescence polarization (AID 651828)
# study.conditions: RVFV N-RNA binding, stronger effect = lower value, concentration not given here
In all, about 20,000 compounds went through this assay and about 25 (0.1%) were called active. Only a selection was taken, and actives are over-represented in it overall.
readout.kind: % bound (%)

[[record]]
compound = "CCc1c(O)nc(SCc2ccccc2)n(C2CCCCC2)c1=O"
readout_units = "%"
measured_value = 92.2

[[record]]
compound = "CCOC(=O)c1cn[nH]c1NC(=S)Nc1ccccc1"
readout_units = "%"
measured_value = 98.6

[[record]]
compound = "COCC(C)N=CC1=C(O)CC(C)(C)CC1=O (stereo unspecified)"
readout_units = "%"
measured_value = 94.3

[[record]]
compound = "COc1ccc(N=Nc2c(-c3ccc(OC)cc3)[nH]oc2=O)cc1"
readout_units = "%"
measured_value = 75.1

[[record]]
compound = "CCSc1nc2ccccc2c(=O)n1C"
readout_units = "%"
measured_value = 96.2

[[record]]
compound = "N#Cc1c(NC(=S)NC(=O)c2ccco2)sc2c1CCCC2"
readout_units = "%"
measured_value = 97.3

[[record]]
compound = "Cn1c(=O)c2cc3c(=O)n(C)c(=O)c3cc2c1=O"
readout_units = "%"
measured_value = 101

[[record]]
compound = "CN(C)C(C#N)c1cn(C)c2ccccc12 (stereo unspecified)"
readout_units = "%"
measured_value = 94.2

[[record]]
compound = "Nc1nc2nc(-c3ccccc3)cc(-c3ccccc3)n2n1"
readout_units = "%"
measured_value = 92

[[record]]
compound = "COc1ccc(C(C)=CC(=O)C(C)(C)C)cc1"
readout_units = "%"
measured_value = 96.7

[[record]]
compound = "Cc1cc(Cl)ccc1NNC(=O)c1snnc1C"
readout_units = "%"
measured_value = 109

[[record]]
compound = "Cc1[nH]cc(Br)c(=O)c1OCC(=O)O"
readout_units = "%"
measured_value = 95.2

[[record]]
compound = "CC1CCCCN1S(=O)(=O)CCNC(=O)c1ccccc1 (stereo unspecified)"
readout_units = "%"
measured_value = 89.1

[[record]]
compound = "CS(=O)(=O)Cc1ccccc1"
readout_units = "%"
measured_value = 97.7

[[record]]
compound = "Cc1cc(Oc2cc(C#N)c(C#N)cc2N2CCOCC2)cc(C)c1Cl"
readout_units = "%"
measured_value = 95.2

[[record]]
compound = "COc1c(C(=O)O/N=C(\\N)c2cccs2)csc1Cl"
readout_units = "%"
measured_value = 95.1

[[record]]
compound = "Cc1cc(C(=O)Nc2ccc(C(=O)N3CCOCC3)cc2)cs1"
readout_units = "%"
measured_value = 88.4

[[record]]
compound = "CC(C)N1C(=O)CNC1=S"
readout_units = "%"
measured_value = 98

[[record]]
compound = "Cc1nnsc1C(=O)Nc1ccc(C(N)=O)cc1"
readout_units = "%"
measured_value = 96.7

[[record]]
compound = "CC(C)NC(=O)C(C)Oc1ccc(S(N)(=O)=O)cc1 (stereo unspecified)"
readout_units = "%"
measured_value = 96.3

[[record]]
compound = "COC(=O)c1ccc(COc2ccc3c(oc(=O)c4cc(OC)ccc43)c2C)o1"
readout_units = "%"
measured_value = 87.4

[[record]]
compound = "CCOC(=O)c1ccc(CC(=O)c2cc(CC)c(O)cc2O)o1"
readout_units = "%"
measured_value = 105

[[record]]
compound = "CC(=O)Nn1nc2c(n1)C(=NNC(=O)c1ccccc1)c1nn(NC(C)=O)nc1C2=NNC(=O)c1ccccc1"
readout_units = "%"
measured_value = 98.5

[[record]]
compound = "O=C1c2ccc(-c3nc4ccccc4c(=O)o3)cc2C(=O)N1c1ccc2c(c1)OCO2"
readout_units = "%"
measured_value = 90

[[record]]
compound = "CCCNC1=C(c2ccc(OC)cc2)C(=O)c2ccccc21"
readout_units = "%"
measured_value = 95.2

[[record]]
compound = "O=C(CSc1ccc(-c2ccccc2)nn1)NCC1CCCO1 (stereo unspecified)"
readout_units = "%"
measured_value = 91.3

[[record]]
compound = "O=C(OCCN1C(=O)c2ccccc2C1=O)Oc1ccccc1"
readout_units = "%"
measured_value = 93.9

[[record]]
compound = "CC(C)Sc1nnc(NC(=O)C(C)(C)C)s1"
readout_units = "%"
measured_value = 96.3

[[record]]
compound = "COc1ccc(C(=O)NCCc2cc3c(OC)ccc(OC)c3[nH]c2=O)cc1"
readout_units = "%"
measured_value = 97.1

[[record]]
compound = "CNC(C)c1ccc(OC)c(OC)c1 (stereo unspecified)"
readout_units = "%"
measured_value = 91

[[record]]
compound = "CN(C)S(=O)(=O)c1ccc(C(=O)Nc2nnc(C3CC3)o2)cc1"
readout_units = "%"
measured_value = 107

[[record]]
compound = "Nn1c(Cc2ccccc2)nnc1SCC(=O)Nc1ccccc1F"
readout_units = "%"
measured_value = 91.9

[[record]]
compound = "Cc1nc(NNC(=O)c2ccccc2)cc(-c2ccccc2)n1"
readout_units = "%"
measured_value = 91.7

[[record]]
compound = "O=S(=O)(NNc1ncnc2sccc12)c1ccc(Cl)cc1"
readout_units = "%"
measured_value = 97.8

[[record]]
compound = "CN1CCC(N(C)C(=O)Nc2c[nH]c3ccccc23)CC1"
readout_units = "%"
measured_value = 96.9

[[record]]
compound = "O=c1[nH]c(O)c(C=Nc2ccccc2)c(=O)[nH]1"
readout_units = "%"
measured_value = 101

[[record]]
compound = "CCC(=O)N=c1sc2cc(Br)ccc2n1CCOC"
readout_units = "%"
measured_value = 101

[[record]]
compound = "COCn1c(=O)[nH]c2ccccc21"
readout_units = "%"
measured_value = 91.1

[[record]]
compound = "COC(=O)c1ccc(CN2CCCC(C)C2)cc1 (stereo unspecified)"
readout_units = "%"
measured_value = 100

[[record]]
compound = "COc1ccc(-c2cc(-c3nnc(N)o3)no2)cc1OC"
readout_units = "%"
measured_value = 92.5

[[record]]
compound = "COc1ccc(N2CCN(C(C)=C3C(=O)c4ccccc4C3=O)CC2)cc1"
readout_units = "%"
measured_value = 96.4

[[record]]
compound = "CCSc1nc(=O)[nH]c2c1CCC2"
readout_units = "%"
measured_value = 92.2

[[record]]
compound = "Cc1ccccc1C(=O)Nc1cccc(N(C)C)c1"
readout_units = "%"
measured_value = 99.1

[[record]]
compound = "CNC(=S)N/N=C/c1cccnc1"
readout_units = "%"
measured_value = 96.3

[[record]]
compound = "CCC(=O)NC1(C(F)(F)F)C(=O)NC(C)=C1C(=O)OC (stereo unspecified)"
readout_units = "%"
measured_value = 97

[[record]]
compound = "Cc1cc(NN)nc(-c2ccccc2O)n1"
readout_units = "%"
measured_value = 91.2

[[record]]
compound = "O=C(Nc1ccccn1)c1cc2c(s1)CCCC2"
readout_units = "%"
measured_value = 94.3

[[record]]
compound = "S=C(c1ccccn1)N1CCN(C(=S)c2ccccn2)CC1"
readout_units = "%"
measured_value = 96.1

[[record]]
compound = "CCC1CCC(N(CC)CCN(C)C)CC1 (stereo unspecified)"
readout_units = "%"
measured_value = 112

[[record]]
compound = "CC(C)CN1C(=O)C=CC1=O"
readout_units = "%"
measured_value = 86.4

[[record]]
compound = "COc1ccc(OCC(=O)Nc2ccc(CN3CCOCC3)cc2)cc1"
readout_units = "%"
measured_value = 87.6

